molecular target: rat MASP1 (Rattus norvegicus, UniProt Q8CHN8); construct: Ig-kappa secretion signal (N, cleaved yes); assay: Biochemical rat MASP1 assay (FRET substrate); settings: average IC50; recombinant rat MASP1, FRET substrate
Sequence (Q8CHN8 302-453 limits assumed): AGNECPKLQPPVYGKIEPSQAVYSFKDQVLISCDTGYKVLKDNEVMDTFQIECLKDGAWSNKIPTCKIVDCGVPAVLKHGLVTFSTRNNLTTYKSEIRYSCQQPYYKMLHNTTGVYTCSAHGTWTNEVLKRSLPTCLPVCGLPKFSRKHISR
Sequence (Q8CHN8 454-704 limits assumed): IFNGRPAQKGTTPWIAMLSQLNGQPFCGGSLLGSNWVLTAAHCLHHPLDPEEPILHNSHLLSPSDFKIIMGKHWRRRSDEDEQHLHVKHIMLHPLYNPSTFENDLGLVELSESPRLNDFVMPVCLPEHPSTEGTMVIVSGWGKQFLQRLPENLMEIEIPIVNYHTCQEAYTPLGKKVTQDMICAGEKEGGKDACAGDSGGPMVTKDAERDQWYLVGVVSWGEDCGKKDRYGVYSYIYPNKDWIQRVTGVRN
Structures can show the parent of a compound that is named as a salt. Numbered stars: 1 amine (or outer) side, 2 acyl side, 3 side chain; on linkers, the order of the positions; unused ones are H or OH. Bridge positions count the residues as written; N and C are the ends. Square brackets hold non-standard residues; d marks the D form. Peptide text beside a SMILES is read from it. X1 = O=C(C1[C@H]2CCCC[C@H]2C[C@H]1C(=O)[*:2])[C@@H]1CCCN1[*:1]; Pen = CC(C)(S)[C@H](N)C(=O)O; Sar = CNCC(=O)O
MEASURE NAME: IC50 (nM)
Number only, in nM; omit the unit.

# count of solved cases: 3
CC[C@H](C)[C@H](NC(=O)[C@H](C)N)C(=O)N[C@H]1CSSC(C)(C)[C@@H](C(=O)N[C@H](C(=O)N2CCC[C@H]2C(=O)N[C@@H](CC(=O)O)C(N)=O)[C@@H](C)CC)NC(=O)[C@H]([C@@H](C)CC)NC(=O)[C@@H]2C[C@@H]3CCCC[C@@H]3N2C(=O)[C@@H]2CCCN2C(=O)[C@H](CC(C)C)NC(=O)[C@H](CO)NC(=O)[C@H](CCCNC(=N)N)NC(=O)[C@H](CO)NC1=O	35
CC[C@H](C)[C@H](NC(=O)[C@H](C)N)C(=O)N[C@H]1CSSC[C@@H](C(=O)N[C@H](C(=O)N2CCC[C@H]2C(=O)N[C@@H](CC(=O)O)C(N)=O)[C@@H](C)CC)N(C)C(=O)[C@H]([C@@H](C)CC)NC(=O)[C@@H]2C[C@@H]3CCCC[C@@H]3N2C(=O)[C@@H]2CCCN2C(=O)[C@H](CC(C)C)NC(=O)[C@H](CO)NC(=O)[C@H](CCCNC(=N)N)NC(=O)[C@H](CO)NC1=O	57
CCC(C)[C@H](NC(=O)[C@H]1NC(=O)[C@H]([C@@H](C)CC)NC(=O)[C@@H]2C[C@@H]3CCCC[C@@H]3N2C(=O)[C@@H]2CCCN2C(=O)[C@H](CC(C)C)NC(=O)[C@H](CO)NC(=O)[C@H](CCCNC(=N)N)NC(=O)[C@H](CO)NC(=O)[C@@H](NC(=O)[C@@H](NC(=O)[C@H](C)NC)[C@@H](C)CC)CSSC1(C)C)C(=O)N1CCC[C@H]1C(=O)N[C@@H](CC(=O)NCc1ccccc1)C(N)=O (stereo in doubt)	160

response.value for CC[C@H](C)[C@H](NC(=O)CNC)C(=O)N[C@H]1CSSC(C)(C)[C@@H](C(=O)N[C@H](C(=O)N2CCC[C@H]2C(N)=O)[C@@H](C)CC)NC(=O)[C@H]([C@@H](C)CC)NC(=O)[C@@H]2C[C@@H]3CCCC[C@@H]3C2C(=O)[C@@H]2CCCN2C(=O)[C@H](CC(C)C)NC(=O)[C@H](CO)NC(=O)[C@H](CCCNC(=N)N)NC(=O)[C@H](CO)NC1=O (some centres unmarked) [Example 67, (HCl Salt)] (H-[Sar]ICSRSL[X1]I[Pen]IP-NH2; disulfide 3-10) (field: IC50) = 72

response.value for CC[C@H](C)[C@H](NC(=O)[C@H](C)N)C(=O)N[C@H]1CSSC(C)(C)[C@@H](C(=O)N[C@H](C(=O)N2CCC[C@H]2C(=O)N[C@@H](CC(=O)O)C(=O)O)[C@@H](C)CC)NC(=O)[C@H]([C@@H](C)CC)NC(=O)[C@@H]2C[C@@H]3CCCC[C@@H]3N2C(=O)[C@@H]2CCCN2C(=O)[C@H](CC(C)C)NC(=O)[C@H](CO)NC(=O)[C@H](CCCNC(=N)N)NC(=O)[C@H](CO)NC1=O [Example 29, (HCl Salt)] (field: IC50) = 10.5

Data origin: patent US11667675B2
